Measured IC50, listed per entry for reference.
Target: recombinant form of Glutaminase 1 (GAC) (Homo sapiens)
Sequence (O94925 137-598 isoform O94925-3 limits assumed): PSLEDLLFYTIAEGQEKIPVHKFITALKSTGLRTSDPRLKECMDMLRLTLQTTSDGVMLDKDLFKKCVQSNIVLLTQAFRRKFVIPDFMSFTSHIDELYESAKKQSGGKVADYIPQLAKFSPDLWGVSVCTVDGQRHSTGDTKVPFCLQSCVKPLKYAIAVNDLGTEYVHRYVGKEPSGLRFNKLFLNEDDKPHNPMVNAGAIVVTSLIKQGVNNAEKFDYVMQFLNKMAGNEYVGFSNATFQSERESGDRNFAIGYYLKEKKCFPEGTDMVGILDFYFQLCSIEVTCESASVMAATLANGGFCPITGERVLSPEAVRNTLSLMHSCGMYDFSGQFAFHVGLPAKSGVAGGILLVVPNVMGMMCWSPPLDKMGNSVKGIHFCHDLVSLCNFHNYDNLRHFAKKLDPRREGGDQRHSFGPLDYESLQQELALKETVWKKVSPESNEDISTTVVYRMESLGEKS
Experiment: Recombinant Enzyme Assay - Time Dependence (60 min preincubation)
Type: biochemical
Details: read-out: GAC Delta N2 IC50 60 min preinc
endpointName: IC50 (nM)

>>> valuereported("COc1ccc(CC(=O)Nc2nnc(CCCCc3ccc(NC(=O)Cc4ccccc4)nn3)s2)cc1C [Compound 550]")
5
>>> valuereported("CC(O)c1cccc(CC(=O)Nc2ccc(CCCCc3nnc(NC(=O)C(C)c4ccccc4)s3)nn2)c1 (stereo not shown) [Compound 595]")
7
>>> valuereported("O=C(Cc1cccc(OC(F)(F)F)c1)Nc1ccc(CCCCc2nnc(NC(=O)Cc3cc(F)cc(F)c3)s2)nn1 [Compound 662]")
7
>>> valuereported("CC(C(=O)Nc1nnc(CCCCc2ccc(NC(=O)Cc3ccccc3)nn2)s1)c1cccc(C(=O)c2ccccc2)c1 (stereo not shown) [Compound 587]")
7
>>> valuereported("CC(C)N(C)C(=O)Cc1cccc(CC(=O)Nc2nnc(CCCCc3ccc(NC(=O)Cc4ccccc4)nn3)s2)c1 [Compound 498]")
3
>>> valuereported("CC(C)(O)COc1cccc(CC(=O)Nc2nnc(CCCCc3ccc(NC(=O)Cc4ccccc4)nn3)s2)c1 [Compound 482]")
7
>>> valuereported("CC(NC(=O)OC(C)(C)C)c1cccc(CC(=O)Nc2ccc(CCCCc3nnc(NC(=O)Cc4ccccc4)s3)nn2)c1 (stereo not shown) [Compound 543]")
4

Attribution: patent US20150004134A1
